- subject_of_test: Mu-type opioid receptor (Homo sapiens)
- Sequence (P35372 whole entry): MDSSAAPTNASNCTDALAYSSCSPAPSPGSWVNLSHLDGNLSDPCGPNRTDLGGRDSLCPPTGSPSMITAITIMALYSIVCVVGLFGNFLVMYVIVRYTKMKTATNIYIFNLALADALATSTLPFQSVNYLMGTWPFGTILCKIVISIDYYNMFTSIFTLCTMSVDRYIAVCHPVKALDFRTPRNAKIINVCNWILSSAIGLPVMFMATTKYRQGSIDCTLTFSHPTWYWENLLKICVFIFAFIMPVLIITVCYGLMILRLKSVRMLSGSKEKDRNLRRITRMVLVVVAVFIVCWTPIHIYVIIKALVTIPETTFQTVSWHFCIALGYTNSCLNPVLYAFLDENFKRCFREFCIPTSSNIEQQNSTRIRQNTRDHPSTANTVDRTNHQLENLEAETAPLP
- assay_details: Displacement of [3H]DPN from recombinant human mu opioid receptor expressed in CHOK1 cell membranes
Consider the following compounds; for each one, report its pKi.
The value called pKi is obtained by taking minus log10 of the concentration in mol/L.

Prompt: Suppose we examine the compound Oc1cccc(C2C[C@H]3CC[C@H](C2)N3CC(O)Cc2ccccc2)c1 (relative stereo; 23b) ; what pKi value has been reported?
Completion: 8.00

Prompt: Suppose we examine the compound NC(=O)c1cccc(C2C[C@H]3CC[C@H](C2)N3CCCCN2C(=O)c3ccccc3C2=O)c1 (relative stereo; 29b) ; what pKi value has been reported?
Completion: 7.50

Prompt: Give the measured pKi of NC(=O)c1cccc(C2C[C@H]3CC[C@H](C2)N3Cc2c(F)cccc2F)c1 (relative stereo; 26b) .
Completion: 5.90

Prompt: Give the measured pKi of CC(C)(C)c1ccc(CN2[C@@H]3CC[C@@H]2CC(c2cccc(O)c2)C3)cc1 (relative stereo; 20a) .
Completion: 10.00

Prompt: Give its pKi value. Item: Oc1cccc(C2C[C@H]3CC[C@H](C2)N3CCCc2ccccc2)c1 (relative stereo; 12b)
Completion: 8.30

Prompt: So what does the record say about pKi for Oc1cccc(C2CC3CCC(C2)N3CCCc2ccccc2)c1 (mixture of isomers) ?
Completion: 9.80

Prompt: // query pKi value for entry O=C1c2ccccc2C(=O)N1CCCCN1[C@@H]2CC[C@@H]1CC(c1cccc(O)c1)C2 (relative stereo; 21b)
Completion: 7.40

Sourced from ChEMBL document CHEMBL4020770
